Item-by-item account of IC50
# target-desc: Adenosine receptor A2b (Homo sapiens, UniProt P29275)
# Sequence (P29275 whole entry): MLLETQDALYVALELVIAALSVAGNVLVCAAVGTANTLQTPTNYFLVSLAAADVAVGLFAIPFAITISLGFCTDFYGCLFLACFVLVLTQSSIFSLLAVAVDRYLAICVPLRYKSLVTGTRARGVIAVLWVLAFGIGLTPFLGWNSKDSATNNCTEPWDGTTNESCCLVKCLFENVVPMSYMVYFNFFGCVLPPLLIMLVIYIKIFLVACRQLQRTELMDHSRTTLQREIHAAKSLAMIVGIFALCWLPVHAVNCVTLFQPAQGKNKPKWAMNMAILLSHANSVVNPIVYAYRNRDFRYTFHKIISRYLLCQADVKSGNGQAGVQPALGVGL
# experimental-protocol: Inhibition of NECA-stimulated cAMP accumulation in CHO cells expressing human adenosine A2B receptor
# Format: functional, cell-based
Please respond with the number in nM and leave the unit unwritten.

Cn1cc2c(nc(NC(=O)Nc3cccc[n+]3[O-])n3nc(-c4ccco4)nc23)n1 :: 320
Cn1cc2c(nc(NC(=O)Nc3ccc[n+](C)c3)n3nc(-c4ccco4)nc23)n1 :: 244
Cn1cc2c(nc(NC(=O)Nc3ccc[n+]([O-])c3)n3nc(-c4ccco4)nc23)n1 :: 260

# input for lookup
**Q:** Consider the molecule shown here: `Cn1cc2c(nc(NC(=O)Nc3cc4ccccc4o3)n3nc(-c4ccco4)nc23)n1` What is its recorded IC50?
**A:** 250

###

# Ki measurements, system: Adenosine receptor A2a (Homo sapiens)
# Sequence (P29274 whole entry): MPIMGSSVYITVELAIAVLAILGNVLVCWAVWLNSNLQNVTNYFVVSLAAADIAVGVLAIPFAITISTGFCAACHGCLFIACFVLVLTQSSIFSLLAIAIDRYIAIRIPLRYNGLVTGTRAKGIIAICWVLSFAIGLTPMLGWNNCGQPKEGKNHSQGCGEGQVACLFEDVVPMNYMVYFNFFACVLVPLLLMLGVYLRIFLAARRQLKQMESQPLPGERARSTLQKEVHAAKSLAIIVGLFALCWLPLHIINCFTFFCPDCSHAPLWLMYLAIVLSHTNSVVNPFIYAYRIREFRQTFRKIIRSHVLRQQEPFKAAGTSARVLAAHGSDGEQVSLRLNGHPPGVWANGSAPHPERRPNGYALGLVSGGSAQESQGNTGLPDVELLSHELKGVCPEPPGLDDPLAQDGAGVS
Units required after the number.

Below are worked cases with known answers.
Cn1cc2c(nc(NC(=O)Nc3cccnc3)n3nc(-c4ccco4)nc23)n1 :: 155 nM
Cn1cc2c(nc(NC(=O)Nc3ccncc3)n3nc(-c4ccco4)nc23)n1 :: 65 nM
Cn1cc2c(nc(NC(=O)Nc3ccc[n+]([O-])c3)n3nc(-c4ccco4)nc23)n1 :: 75 nM
Cn1cc2c(nc(NC(=O)Nc3cccc[n+]3[O-])n3nc(-c4ccco4)nc23)n1 :: 110 nM

# input for lookup
**Q:** Adenosine receptor A2a (Homo sapiens) / Ki / `Cn1cc2c(nc(NC(=O)Nc3cccc[n+]3C)n3nc(-c4ccco4)nc23)n1` : value?
**A:** 64 nM

###

Item-by-item account of IC50
# target-desc: Adenosine receptor A2b (Homo sapiens, UniProt P29275)
# experimental-protocol: Inhibition of NECA-stimulated cAMP accumulation in CHO cells expressing human adenosine A2B receptor
# Type: functional, cell-based
# test-context: cho

Cn1cc2c(nc(NC(=O)Nc3ccncc3)n3nc(-c4ccco4)nc23)n1 :: > 1000 nM
Cn1cc2c(nc(NC(=O)Nc3ccccn3)n3nc(-c4ccco4)nc23)n1 :: > 1000 nM

# input for lookup
**Q:** Adenosine receptor A2b (Homo sapiens, UniProt P29275) / IC50 / `Cn1cc2c(nc(NC(=O)Nc3cccnc3)n3nc(-c4ccco4)nc23)n1` : value?
**A:** > 1000 nM

###

Item-by-item account of pKi
# target-desc: Adenosine receptor A3 (Homo sapiens, UniProt P0DMS8)
# Sequence (P0DMS8 whole entry): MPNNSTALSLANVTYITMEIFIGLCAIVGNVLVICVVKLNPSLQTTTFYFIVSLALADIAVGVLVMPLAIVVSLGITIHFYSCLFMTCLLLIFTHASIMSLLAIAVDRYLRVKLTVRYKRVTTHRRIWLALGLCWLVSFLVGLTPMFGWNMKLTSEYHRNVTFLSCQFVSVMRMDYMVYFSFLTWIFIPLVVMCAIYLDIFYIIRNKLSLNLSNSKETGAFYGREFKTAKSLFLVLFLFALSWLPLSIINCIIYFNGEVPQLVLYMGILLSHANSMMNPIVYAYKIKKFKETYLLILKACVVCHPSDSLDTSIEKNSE
Interpret pKi as the negative base-10 log of the concentration measured in mol/L.

**Q:** Consider the compound shown here: `Cn1cc2c(nc(NC(=O)Nc3ccco3)n3nc(-c4ccco4)nc23)n1` What is its recorded pKi?
**A:** 7.80

**Q:** Consider the compound shown here: `Cn1cc2c(nc(NC(=O)Nc3cc[n+](C)cc3)n3nc(-c4ccco4)nc23)n1` What is its recorded pKi?
**A:** 7.55

**Q:** Consider the compound shown here: `Cn1cc2c(nc(NC(=O)Nc3ccccn3)n3nc(-c4ccco4)nc23)n1` What is its recorded pKi?
**A:** 9.30

**Q:** Consider the compound shown here: `Cn1cc2c(nc(NC(=O)Nc3ccc4ccccc4n3)n3nc(-c4ccco4)nc23)n1` What is its recorded pKi?
**A:** 6.96

###

# target-desc: Adenosine receptors; A1 & A3 (Homo sapiens) (UniProt P30542+P0DMS8)
# experimental-protocol: Selectivity for human adenosine A3 over human adenosine A1 receptor
# Assay type: protein assay
Item-by-item account of Ratio Ki

Cn1cc2c(nc(NC(=O)Nc3ccc[n+](C)c3)n3nc(-c4ccco4)nc23)n1 :: 62
Cn1cc2c(nc(NC(=O)Nc3cccc[n+]3C)n3nc(-c4ccco4)nc23)n1 :: 307

# input for lookup
**Q:** Consider the compound shown here: `Cn1cc2c(nc(NC(=O)Nc3ccco3)n3nc(-c4ccco4)nc23)n1` What is its recorded Ratio Ki?
**A:** > 62.5

###

# target-desc: UniProt P29275
# experimental-protocol: Inhibition of NECA-stimulated cAMP accumulation in CHO cells expressing human adenosine A2B receptor
# Type: functional, cell-based
Item-by-item account of IC50

Cc1sccc1NC(=O)Nc1nc2nn(C)cc2c2nc(-c3ccco3)nn12 :: > 1 µM

**Q:** Consider the compound shown here: `Cc1ccc(NC(=O)Nc2nc3nn(C)cc3c3nc(-c4ccco4)nn23)s1` What is its recorded IC50?
**A:** > 1 µM

**Q:** Consider the compound shown here: `Cn1cc2c(nc(NC(=O)Nc3cc[n+](C)cc3)n3nc(-c4ccco4)nc23)n1` What is its recorded IC50?
**A:** > 1 µM

**Q:** Consider the compound shown here: `Cn1cc2c(nc(NC(=O)Nc3cccc[n+]3C)n3nc(-c4ccco4)nc23)n1` What is its recorded IC50?
**A:** 0.28 µM

**Q:** Consider the compound shown here: `Cn1cc2c(nc(NC(=O)Nc3cccnc3)n3nc(-c4ccco4)nc23)n1` What is its recorded IC50?
**A:** > 1 µM

###

# pKi measurements, system: Adenosine receptor A2a (Homo sapiens)
Interpret pKi as the negative base-10 log of the concentration measured in mol/L.

Below are worked cases with known answers.
Cn1cc2c(nc(NC(=O)Nc3ccccn3)n3nc(-c4ccco4)nc23)n1 :: 6.74
Cc1sccc1NC(=O)Nc1nc2nn(C)cc2c2nc(-c3ccco3)nn12 :: 6.39
Cn1cc2c(nc(NC(=O)Nc3ccoc3)n3nc(-c4ccco4)nc23)n1 :: 6.40

# input for lookup
**Q:** Consider the compound shown here: `Cn1cc2c(nc(NC(=O)Nc3cc[n+](C)cc3)n3nc(-c4ccco4)nc23)n1` What is its recorded pKi?
**A:** 6.55

###

# target-desc: Adenosine receptors; A2a & A3 (Homo sapiens) (UniProt P0DMS8+P29274)
# experimental-protocol: Selectivity for human adenosine A3 over human adenosine A2A receptor
# Type: protein assay
Quick rule: Ratio Ki of at least 30 means met, below that means not met.

Worked cases, answers included:
Cn1cc2c(nc(NC(=O)Nc3cccc[n+]3[O-])n3nc(-c4ccco4)nc23)n1 :: met
Cn1cc2c(nc(NC(=O)Nc3cc4ccccc4o3)n3nc(-c4ccco4)nc23)n1 :: not met
Cn1cc2c(nc(NC(=O)Nc3ccc[n+]([O-])c3)n3nc(-c4ccco4)nc23)n1 :: not met
Cn1cc2c(nc(NC(=O)Nc3ccco3)n3nc(-c4ccco4)nc23)n1 :: not met
Cn1cc2c(nc(NC(=O)Nc3cccc[n+]3C)n3nc(-c4ccco4)nc23)n1 :: met

**Q:** Confirm if Ratio Ki reported for the molecule `Cn1cc2c(nc(NC(=O)Nc3cc[n+]([O-])cc3)n3nc(-c4ccco4)nc23)n1` is 30 or above.
**A:** not met

**Q:** Confirm if Ratio Ki reported for the molecule `Cn1cc2c(nc(NC(=O)Nc3ccoc3)n3nc(-c4ccco4)nc23)n1` is 30 or above.
**A:** met

**Q:** Confirm if Ratio Ki reported for the molecule `Cn1cc2c(nc(NC(=O)Nc3cc[n+](C)cc3)n3nc(-c4ccco4)nc23)n1` is 30 or above.
**A:** not met

**Q:** Confirm if Ratio Ki reported for the molecule `Cc1ccc(NC(=O)Nc2nc3nn(C)cc3c3nc(-c4ccco4)nn23)s1` is 30 or above.
**A:** met

**Q:** Confirm if Ratio Ki reported for the molecule `Cn1cc2c(nc(NC(=O)Nc3ccc[n+](C)c3)n3nc(-c4ccco4)nc23)n1` is 30 or above.
**A:** not met

**Q:** Confirm if Ratio Ki reported for the molecule `Cn1cc2c(nc(NC(=O)Nc3ccc4ccccc4n3)n3nc(-c4ccco4)nc23)n1` is 30 or above.
**A:** not met

**Q:** Confirm if Ratio Ki reported for the molecule `Cc1sccc1NC(=O)Nc1nc2nn(C)cc2c2nc(-c3ccco3)nn12` is 30 or above.
**A:** met

###

Item-by-item account of Ratio Ki
# target-desc: Adenosine receptors; A1 & A3 (Homo sapiens) (UniProt P30542+P0DMS8)
# experimental-protocol: Selectivity for human adenosine A3 over human adenosine A1 receptor
# Format: protein assay

Below are worked cases with known answers.
Cc1ccc(NC(=O)Nc2nc3nn(C)cc3c3nc(-c4ccco4)nn23)s1 :: > 100
Cn1cc2c(nc(NC(=O)Nc3cc[n+]([O-])cc3)n3nc(-c4ccco4)nc23)n1 :: > 47
Cn1cc2c(nc(NC(=O)Nc3cccc[n+]3[O-])n3nc(-c4ccco4)nc23)n1 :: 228
Cc1sccc1NC(=O)Nc1nc2nn(C)cc2c2nc(-c3ccco3)nn12 :: > 286
Cn1cc2c(nc(NC(=O)Nc3ccc4ccccc4n3)n3nc(-c4ccco4)nc23)n1 :: > 9
Cn1cc2c(nc(NC(=O)Nc3cc[n+](C)cc3)n3nc(-c4ccco4)nc23)n1 :: > 36
Cn1cc2c(nc(NC(=O)Nc3ccc[n+]([O-])c3)n3nc(-c4ccco4)nc23)n1 :: 55
Cn1cc2c(nc(NC(=O)Nc3cc4ccccc4o3)n3nc(-c4ccco4)nc23)n1 :: > 83

# input for lookup
**Q:** Consider the compound shown here: `Cn1cc2c(nc(NC(=O)Nc3ccoc3)n3nc(-c4ccco4)nc23)n1` What is its recorded Ratio Ki?
**A:** > 90
